target: tryptophan synthase (TS) complex, TrpA:TrpB (Salmonella enterica, UniProt P0A2K1); assay: coupled VioA/HRP assay of Trp formation, […] nm, global fit
Sequence (P0A2K1 whole entry): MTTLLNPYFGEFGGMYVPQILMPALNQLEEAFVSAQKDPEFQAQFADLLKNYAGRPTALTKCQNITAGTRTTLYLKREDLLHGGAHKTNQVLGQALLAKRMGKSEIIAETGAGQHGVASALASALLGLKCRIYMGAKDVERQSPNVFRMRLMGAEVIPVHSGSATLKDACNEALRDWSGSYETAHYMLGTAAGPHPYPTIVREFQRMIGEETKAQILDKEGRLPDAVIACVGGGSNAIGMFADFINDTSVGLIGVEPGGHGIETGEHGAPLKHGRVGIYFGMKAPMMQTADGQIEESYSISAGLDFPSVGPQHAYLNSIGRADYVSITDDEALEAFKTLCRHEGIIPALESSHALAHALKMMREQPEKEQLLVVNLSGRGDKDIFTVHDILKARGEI
Sequence (P00929 whole entry partner): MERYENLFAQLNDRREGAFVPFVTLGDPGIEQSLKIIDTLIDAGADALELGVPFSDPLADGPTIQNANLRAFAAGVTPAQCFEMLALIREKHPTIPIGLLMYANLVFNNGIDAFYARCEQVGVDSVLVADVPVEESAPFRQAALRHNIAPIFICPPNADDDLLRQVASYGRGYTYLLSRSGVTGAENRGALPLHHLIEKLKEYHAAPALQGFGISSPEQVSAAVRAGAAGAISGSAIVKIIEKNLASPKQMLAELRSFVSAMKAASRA
outcome measure: Ki (µM)

Guide cases for Ki, answers given:
compound: O=C(NCCCCOP(=O)(O)O)c1ccc(/N=N/c2ccccc2)cc1
Ki / µM: 640
--
compound: O=C(NCCCCCOP(=O)(O)O)c1ccc(/N=N/c2ccccc2)cc1
Ki / µM: 180
--
compound: O=C(NCCCCCCOP(=O)(O)O)c1ccc(/N=N\c2ccccc2)cc1 [4f, 4 f (Z isomer)]
Ki / µM: 100

I = O=C(NCCCCCCOP(=O)(O)O)c1ccc(/N=N/c2ccccc2)cc1
II = O=C(NCCCCCOP(=O)(O)O)c1ccc(/N=N\c2ccccc2)cc1 [4e, 4 e (Z isomer)]
Which gives the smaller Ki number: I or II ? Your answer should be the label attached to the chosen record.
I
